Measured inhibition accompanies every entry in the list below.
molecular target: Glucose transporter (Leishmania mexicana) (UniProt O61059); assay: ST_JUDE_LEISH: Cytotoxicity at 2uM final concentration against transgenic Leishmania Mexicana promastigotes LmGT2 that are glucose transport deficient and complemented with the L. Mexicana glucose transporter 2. Activity is measured by DNA content using SYBR green in vitro; format: functional

COMPOUND: Cc1cccc2nc(-c3ccc(-c4ccc(C(=O)NCCN5CCCC5)cc4)s3)[nH]c12
inhibition, %: -0.1
--
COMPOUND: CC(C)[C@H]1CC[C@H](C)C[C@@H]1OC(=O)N[C@@H](Cc1ccc(O)cc1)C(=O)NC1CCN(Cc2ccc(OCCCN(C)C)cc2)C1 (stereo not given in full)
inhibition, %: 3.06
--
COMPOUND: CCCCC(=O)NC(c1cccs1)c1cc(Cl)c2cccnc2c1O (stereo not given)
inhibition, %: 5.17
--
COMPOUND: O=C(Nc1cccc(-c2ccc(-c3nc4ccccc4[nH]3)cc2)c1)Nc1ccc(F)c(F)c1F
inhibition, %: 2.03
--
COMPOUND: COc1ccc2nccc([C@@H](O)CN3CCC(NC(=O)c4ccc(Cl)c(OC)c4)CC3)c2c1
inhibition, %: 0.22

Source of measurements: ChEMBL document CHEMBL3433997
